FYI, the data here is from ChEMBL document CHEMBL1201862.

Tested on: SK-OV-3
experimental.protocol: NCI tumour cell line growth inhibition, 48 h
Active and inactive are the calls of the source. No stated cut-off is given here; in the data, active = GI50 up to about 1.1 µM and inactive = higher. Bridge positions count the residues as written; N and C are the ends. Peptide text beside a SMILES is read from it. * marks the point of attachment. Cbz = O=C(OCc1ccccc1)*
Catalogue of GI50 readings, one per entry.
assay.readout: GI50

| molecule | reported.measurement |
| --- | --- |
| Cc1c(-c2ccccc2)c(C#N)c2nnn(C)c(=O)n12 | 96.2 µM (inactive) |
| O=C1NC2c3c(I)sc(I)c3/C(=N\O)C2O1 (configuration not stated) | 34.5 µM (inactive) |
| CNC(=O)C1CCCCNC(=O)CCC(NC(=O)OCc2ccccc2)C(=O)N1 (stereo not drawn) (Cbz-Glu-Lys-NHMe; lactam 1-2; configuration not given here) | > 100 µM (inactive) |
| CN(C)CCCN1c2ccccc2CCc2cccc([N+](=O)[O-])c21 | 28.6 µM (inactive) |
| O=C1CSSCC(=O)Nc2ccccc2N1 | > 100 µM (inactive) |
| CNC(=O)Nn1c(SC)nc2ccccc21 | > 100 µM (inactive) |
| Cc1ccc(C)c(C(=N)c2ccccc2Cc2ccccc2)c1 | 26.8 µM (inactive) |
